Reference source: ChEMBL document CHEMBL1671731

- Test system: Staphylococcus aureus
- PROTOCOL DESCRIPTION: Antimicrobial activity against Staphylococcus aureus RDN1 harboring cloned pTZ2238-encoded QacBIV A19T mutant gene by agar dilution method
- Type: functional
Listed below: log10(MIC) values for each entry.
# log10 transformed; quantity=MIC; unit=µg/mL

INSERT INTO results (molecule, readout_label, numeric_value) VALUES
  ('CN(C)c1ccc(C(=C2C=CC(=[N+](C)C)C=C2)c2ccc(N(C)C)cc2)cc1.[Cl-]', 'log10(MIC)', -0.30),
  ('N=C(NCCCCCCNC(=N)NC(=N)Nc1ccc(Cl)cc1)NC(=N)Nc1ccc(Cl)cc1.O=C(O)[C@H](O)[C@@H](O)[C@H](O)[C@H](O)CO', 'log10(MIC)', 0.60),
  ('C[n+]1c2cc(N)ccc2cc2ccc(N)cc21.[Cl-]', 'log10(MIC)', 3.01);

Data request, read-out log10(MIC), for `N=C(N)c1ccc(OCCCCCOc2ccc(C(=N)N)cc2)cc1.O=S(=O)(O)CCO`
3.01

Would you kindly share the measured log10(MIC) for [Cl-].c1ccc([P+](c2ccccc2)(c2ccccc2)c2ccccc2)cc1 [TETRAPHENYLPHOSPHONIUM CHLORIDE] ?
2.71

If you can, please state the reported log10(MIC) value of CC(=O)NCC(=O)O.N=C(N)c1ccc(/N=N/Nc2ccc(C(=N)N)cc2)cc1 [DIMINAZEN ACETURATE] .
3.31

====

- System: Staphylococcus aureus
- PROTOCOL DESCRIPTION: Antimicrobial activity against Staphylococcus aureus RDN1 harboring cloned pTZ2162-encoded QacBIII E320A mutant gene by agar dilution method
- Type: functional
READOUT LABEL: MIC (µg/mL)
Write the number in µg/mL without appending the unit.

A selection of reference data follows.
INSERT INTO assay_data (compound, readout_label, numeric_value) VALUES
  ('C[C@H]1COc2c(N3CCN(C)CC3)c(F)cc3c(=O)c(C(=O)O)cn1c23.C[C@H]1COc2c(N3CCN(C)CC3)c(F)cc3c(=O)c(C(=O)O)cn1c23.O', 'MIC', 0.25),
  ('N=C(N)c1ccc(OCCCCCOc2ccc(C(=N)N)cc2)cc1.O=S(=O)(O)CCO', 'MIC', 512),
  ('[Cl-].c1ccc([P+](c2ccccc2)(c2ccccc2)c2ccccc2)cc1 [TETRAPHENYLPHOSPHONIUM CHLORIDE]', 'MIC', 256),
  ('N=C(NCCCCCCNC(=N)NC(=N)Nc1ccc(Cl)cc1)NC(=N)Nc1ccc(Cl)cc1.O=C(O)[C@H](O)[C@@H](O)[C@H](O)[C@H](O)CO', 'MIC', 4);

API: the following record is the query input.
Record lookup: for Staphylococcus aureus, what MIC belongs to `CCn1cc(C(=O)O)c(=O)c2cc(F)c(N3CCNCC3)cc21` ?
0.13
